Here, each record is paired with measured conversion (cleavage) by hGzmB data.
Target: human granzyme B (human) (UniProt P10144)
Sequence (P10144 21-247): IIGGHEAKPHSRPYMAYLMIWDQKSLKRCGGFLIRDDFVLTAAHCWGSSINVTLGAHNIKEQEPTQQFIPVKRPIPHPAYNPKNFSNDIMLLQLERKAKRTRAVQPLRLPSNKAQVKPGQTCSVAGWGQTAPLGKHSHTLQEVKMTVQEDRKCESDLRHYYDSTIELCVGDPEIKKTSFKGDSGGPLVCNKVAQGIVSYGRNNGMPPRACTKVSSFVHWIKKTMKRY
Primed or numbered codes have the meaning given here. The star is where a group is joined. BODIPY(FL) = CC1=CC(C)=[N+]2C1=Cc1ccc(CCC(=O)*)n1[B-]2(F)F; Dabcyl′ = quencher
Your answer should be a plain number; it is taken to be in %.

Check out these entries, answers already filled in.
[[record]]
binder = "{BODIPY(FL)}-IEPDRL-{Dabcyl′} [hexapeptide H7]"
measured_result = 60

[[record]]
binder = "{BODIPY(FL)}-IEPDSL-{Dabcyl′} [peptide H3]"
measured_result = 80

[[record]]
binder = "{BODIPY(FL)}-IEPDWL-{Dabcyl′} [peptide H4]"
measured_result = 82


Please find the next binder below.
stdin: Read off the recorded conversion (cleavage) by hGzmB for {BODIPY(FL)}-IEPDWR-{Dabcyl′} [hexapeptide H6]
stdout: 40
